// data source = the NIST ThermoML archive (doi:10.1016/j.fluid.2011.12.029)

settings: 318.15 K; 100 kPa; Liquid; Vibrating tube method
± gives the expanded uncertainty stated by the source.
metric: mass density

Guide cases for mass density, answers given:
compound	reportedValue
CCCC[n+]1ccccc1.F[B-](F)(F)F [1-butylpyridinium tetrafluoroborate]	1200.36 ± 0.4 kg/m3
CCC[n+]1ccccc1Oc1ccc(Cl)c[n+]1CCOS(=O)(=O)[O-].F[B-](F)(F)F	1238.82 ± 0.43 kg/m3
CCCCCCCC[n+]1cccc(C)c1.F[B-](F)(F)F [N-octyl-3-methylpyridinium tetrafluoroborate]	1082.49 ± 1 kg/m3

Field request: mass density | item: CCCC[n+]1cccc(C)c1.N#C[N-]C#N [1-butyl-3-methylpyridinium dicyanamide]
1037.22 ± 0.91 kg/m3

Need mass density, item CCCC[n+]1ccccc1.O=S(=O)([O-])C(F)(F)F [1-butylpyridinium trifluoromethanesulfonate]
1299.91 ± 0.48 kg/m3
